Hey, just so you know, these numbers are from patent US7514534.

molecular target: T1, MMP-26 (human); experiment: cell-based or functional assay
T1 sequence: ASDF
Below, each entry is listed alongside its reported % Inhibition of JEG-3 cell invasion, 5 µg/ml (first test).
Form entry: value (%) — number only.

Below are worked cases with known answers.
{"binder": "C05 (antibody, human IgG4, V domains shown) VH: EVQLLESGGGLVQPGGSLRLSCAASGFTFSSYQMDWVRQAPGKGLEWVSRIVPSGGDTTYADSVKGRFTISRDNSKNTLYLQMNSLRAEDTAVYYCARHVYYDSSDYFPNPFDYWGQGTLVTVSS VL: QSELTQPPSVSGTPGQRVTISCSGSSSNIGSEYVYWFQQLPGTAPRLLIYRNDQRPSGVPDRFSGSKSGTSASLAISGLRSEDETDYYCTTWDDSLSGPVFGGGTKLTVLG", "result_value": 16}
{"binder": "A1-orig (antibody, human IgG4, V domains shown) VH: EVQLLESGGGLVQPGGSLRLSCAASGFTFSYYRMSWVRQAPGKGLEWVSSIGPSGGDTLYADSVKGRFTISRDNSKNTLYLQMNSLRAEDTAVYYCARSFSSGPYYFDYWGQGTLVTVSS VL: QSVLTQPPSASGTPGQRVIISCSGSSSNIGSHYVHWYQQVPGTAPKLLIYRNGQRPSGVPDRFSGFKSGTSASLAISGLRSEDEANYYCATWDDSVLFGGGTTLTVLG", "result_value": 40}
{"binder": "A01 (antibody, human IgG4, V domains shown) VH: EVQLLESGGGLVQPGGSLRLSCAASGFTFSAYNMFWVRQAPGKGLEWVSGIGSSGGIAPYADSVKGRFTISRDNSKNTLYLQMNSLRAEDTAVYYCARAAYEVENWFDPWGQGTLVTVSS VL: DIQMTQSPGTLSLSPGERATLSCRASQIVRSTYLAWYQQKPGQAPRLLIYGTSSRATGVPDRFSGSGSGTDFTLTISGLEPEDFALYYCQRYGDSPPITFGQGTRLEITR", "result_value": 19}

Task: Return % Inhibition of JEG-3 cell invasion, 5 µg/ml (first test) (reported value) for this binder: A04 (antibody, human IgG4, V domains shown) VH: EVQLLESGGGLVQPGGSLRLSCAASGFTFSEYNMAWVRQAPGKGLEWVSRIGSSGGKTKYADSVKGRFTISRDNSKNTLYLQMNSLRAEDTAVYYCARDEAPDYGDDAEAFDIWGQGTMVTVSS VL: QSALTQPPSASGTPGQRVTISCSGGYSNMGSNYAHWYQQVPGTAPKLLIYNNNQRPSGVPDRFSGSKSGTSASLAISGLRSEDEADYYCAAWDENLSGPVFGTGTKVTVLG
Output: 6

Task: Return % Inhibition of JEG-3 cell invasion, 5 µg/ml (first test) (reported value) for this binder: D08 (antibody, human IgG4, V domains shown) VH: EVQLLESGGGLVQPGGSLRLSCAASGFTFSFYAMWWVRQAPGKGLEWVSRIYSSGGKTWYADSVKGRFTISRDNSKNTLYLQMNSLRAEDTAVYYCARVGMSTYAFDIWGQGTMVTVSS VL: DIQMTQSPSSLSASVGDRVTITCRASQSISDYLNWYQQKPGKAPDLLIYAASSLQSGVPSRFSGSGSGTDFTLTVSSLQPEDFATYFCQQSYSIPLTFGGGTKVEITR
Output: 36
